Test system: Acinetobacter baumannii
Assay: Antibacterial activity against Acinetobacter baumannii ATCC 19606
Format: functional
Conditions: ATCC 19606 = CIP 70.34 = JCM 6841
QUANTITY_KIND: MIC (µg/mL)
Express the result in µg/mL but write the number alone.

| STRUCTURE | MEASUREMENT_TARGET | QUANTITY_KIND | RESULT_UNITS | OBSERVED_MEASUREMENT |
| --- | --- | --- | --- | --- |
| CC(C)[C@@H]1CC[C@@H](C)C[C@H]1OC(=O)N(CCCCCCc1cn(CCCCCc2c[nH]c(N)n2)nn1)CCc1ccccn1.Cl | Acinetobacter baumannii | MIC | µg/mL | 16 |
| CC(C)[C@@H]1CC[C@@H](C)C[C@H]1OC(=O)NCCCCCc1c[nH]c(N)n1.Cl | Acinetobacter baumannii | MIC | µg/mL | 32 |
| CC(C)[C@@H]1CC[C@@H](C)C[C@H]1OC(=O)N(CCCCCCc1cn(CCCCCCc2c[nH]c(N)n2)nn1)CCc1ccccn1.Cl | Acinetobacter baumannii | MIC | µg/mL | 32 |
| CC(C)[C@@H]1CC[C@@H](C)C[C@H]1OC(=O)NCCCCCCCc1c[nH]c(N)n1.Cl | Acinetobacter baumannii | MIC | µg/mL | 8 |
| CC(C)[C@@H]1CC[C@@H](C)C[C@H]1OC(=O)NCCCCCCc1c[nH]c(N)n1.Cl | Acinetobacter baumannii | MIC | µg/mL | 16 |
| CC(C)[C@@H]1CC[C@@H](C)C[C@H]1OC(=O)NCCn1cc(CCCCCc2c[nH]c(N)n2)nn1.Cl | Acinetobacter baumannii | MIC | µg/mL | 64 |

Below: the item to evaluate.
[Q] Answer with the recorded MIC of CC(C)[C@@H]1CC[C@@H](C)C[C@H]1OC(=O)NCCCn1cc(CCCCCc2c[nH]c(N)n2)nn1.Cl only.
[A] 64

Hey, just so you know, these numbers are from ChEMBL document CHEMBL1667831.
